Target or test system: T1, βTrCP (tag cleaved and complexed with Skp1) (UniProt Q9Y297 175-605; P63208 1-163)
T1 construct: Protein of the fluorescence polarisation assay, 0.035 µM; also called Beta Transducin repeat-containing protein; βTrCP/Skp1
T1 sequence (Q9Y297 175-605, chain 1 of 2): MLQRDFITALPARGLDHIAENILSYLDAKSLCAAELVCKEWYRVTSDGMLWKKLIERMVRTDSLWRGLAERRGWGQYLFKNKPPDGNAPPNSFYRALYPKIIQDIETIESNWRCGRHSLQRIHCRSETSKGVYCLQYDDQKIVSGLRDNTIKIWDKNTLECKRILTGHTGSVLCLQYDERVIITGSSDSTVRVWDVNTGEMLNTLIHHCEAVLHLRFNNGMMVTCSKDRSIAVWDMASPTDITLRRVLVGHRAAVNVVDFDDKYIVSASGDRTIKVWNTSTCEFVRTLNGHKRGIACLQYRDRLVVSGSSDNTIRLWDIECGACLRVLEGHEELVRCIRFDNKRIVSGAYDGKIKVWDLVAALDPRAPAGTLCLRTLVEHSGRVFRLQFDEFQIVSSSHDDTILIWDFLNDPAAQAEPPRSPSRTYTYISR
T1 sequence (P63208 whole entry, chain 2 of 2): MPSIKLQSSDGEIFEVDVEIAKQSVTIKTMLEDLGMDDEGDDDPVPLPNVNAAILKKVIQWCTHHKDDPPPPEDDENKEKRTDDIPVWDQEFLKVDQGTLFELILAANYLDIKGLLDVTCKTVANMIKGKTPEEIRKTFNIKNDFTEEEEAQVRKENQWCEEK
Assay overview: fluorescence polarisation assay; the column head does not say whether IC50 or Ki
Non-standard residues stand in square brackets, D forms with d. *: point of attachment. Benzenesulfonyl(4-tBu) = CC(C)(C)c1ccc(S(=O)(=O)*)cc1; 2,4,6‑trimethylbenzoyl = Cc1cc(C)c(C(=O)*)c(C)c1; 4‑(Br)‑2‑(Me)PhSO2 = Cc1cc(Br)ccc1S(=O)(=O)*; Benzoyl(4-tBu) = CC(C)(C)c1ccc(C(=O)*)cc1; 4‑(n-Pr)PhSO2 = CCCc1ccc(S(=O)(=O)*)cc1; Phe(3-F) = N[C@@H](Cc1cccc(F)c1)C(=O)O; Benzoyl(4-Br) = O=C(c1ccc(Br)cc1)*; 2Naphthoyl = O=C(c1ccc2ccccc2c1)*; Benzoyl(4-Me) = Cc1ccc(C(=O)*)cc1; Brosyl = O=S(=O)(c1ccc(Br)cc1)*; Ahx = NCCCCCC(=O)O
Please go through the items and note down their FP Assay /.
Note: unit nM is implicit; provide only the numeric part.

Q: Record request: FP Assay / value, item {4‑(n-Pr)PhSO2}-[dD]EG[Phe(3-F)]WE[Ahx]K(2Naphthoyl)-NH2 (Round II CPP; also called UBP085) [4-(n-Pr)PhSO2-dEGF(3F)WE-Ahx-K(CO(2-Naphth))-NH2]
Result: 136

Q: What do you have for {Benzenesulfonyl(4-tBu)}-[dD]EG[Phe(3-F)]WE[Ahx]K(Benzoyl(4-Me))-NH2 (Round II CPP; also called UBP078) [4-(t-Bu)PhSO2-dEGF(3F)WE-Ahx-K(CO((4-Me)Ph))-NH2] ?
Result: 40

Q: What do you have for Brosyl-[dD]EG[Phe(3-F)]WE[Ahx]K(Benzoyl(4-Me))-NH2 (Round II CPP; also called UBP092) [4-(Br)PhSO2-dEGF(3F)WE-Ahx-K(CO((4-Me)Ph))-NH2] ?
Result: 151

Q: What do you have for {4‑(Br)‑2‑(Me)PhSO2}-[dD]EG[Phe(3-F)]WE[Ahx]K(2,4,6‑trimethylbenzoyl)-NH2 (Round II CPP; also called UBP096) [4-(Br)-2-(Me)PhSO2-dEGF(3F)WE-Ahx-K(CO((2,4,6-Me3)Ph))-NH2] ?
Result: 114

Q: What do you have for {4‑(n-Pr)PhSO2}-[dD]EG[Phe(3-F)]WE[Ahx]K(Benzoyl(4-Me))-NH2 (Round II CPP; also called UBP087) [4-(n-Pr)PhSO2-dEGF(3F)WE-Ahx-K(CO((4-Me)Ph))-NH2] ?
Result: 58.3

Q: What do you have for {Benzenesulfonyl(4-tBu)}-[dD]EG[Phe(3-F)]WE[Ahx]K(Benzoyl(4-tBu))-NH2 (Round II CPP; also called UBP075) [4-(t-Bu)PhSO2-dEGF(3F)WE-Ahx-K(CO((4-tBu)Ph))-NH2] ?
Result: 87.8

Q: What do you have for {4‑(n-Pr)PhSO2}-[dD]EG[Phe(3-F)]WE[Ahx]K(Benzoyl(4-tBu))-NH2 (Round II CPP; also called UBP084) [4-(n-Pr)PhSO2-dEGF(3F)WE-Ahx-K(CO((4-tBu)Ph))-NH2] ?
Result: 174

Q: What do you have for {Benzenesulfonyl(4-tBu)}-[dD]EG[Phe(3-F)]WE[Ahx]K(2Naphthoyl)-NH2 (Round II CPP; also called UBP076) [4-(t-Bu)PhSO2-dEGF(3F)WE-Ahx-K(CO(2-Naphth))-NH2] ?
Result: 43.4

Q: What do you have for {Benzenesulfonyl(4-tBu)}-[dD]EG[Phe(3-F)]WE[Ahx]K(2,4,6‑trimethylbenzoyl)-NH2 (Round II CPP; also called UBP077) [4-(t-Bu)PhSO2-dEGF(3F)WE-Ahx-K(CO((2,4,6-Me3)Ph))-NH2] ?
Result: 40.9

Q: What do you have for Brosyl-[dD]EG[Phe(3-F)]WE[Ahx]K(2Naphthoyl)-NH2 (Round II CPP; also called UBP090) [4-(Br)PhSO2-dEGF(3F)WE-Ahx-K(CO(2-Naphth))-NH2] ?
Result: 133

Q: What do you have for {4‑(Br)‑2‑(Me)PhSO2}-[dD]EG[Phe(3-F)]WE[Ahx]K(Benzoyl(4-Br))-NH2 (Round II CPP; also called UBP098) [4-(Br)-2-(Me)PhSO2-dEGF(3F)WE-Ahx-K(CO((4-Br)Ph))-NH2] ?
Result: 92.4

Every entry's value here was drawn from patent US20190106460A1.
